Just for reference, PubChem BioAssay (NCI) is where these values come from.

# System: K-562 leukemia
# Measurement protocol: NCI-60 one-dose screen, 48 h (100 = growth as untreated, 0 = no growth, -100 = all killed)
# Experimental context: 10 µM unless noted
About 83,000 compounds went through this panel and 20% of them were active in at least one assay; those are over-represented in the sample as a whole.
Value type: growth (%)
Report the value in % with no unit label.

Query: Entry under review: Cc1ccc(/C=C2\Oc3ccc(O)c(O)c3C2=O)cc1 . Reported growth?
Result: 19.2

Query: Entry under review: CCN(CC)S(=O)(=O)c1ccc(NC(=O)CSc2nnc(C)n2-c2ccccc2)cc1 . Reported growth?
Result: 88.5

Query: Entry under review: COc1ccc2sc3c(NCCO)nc4ccccc4c3c(=O)c2c1 . Reported growth?
Result: 76.7

Query: Entry under review: CCCCn1c(=O)c(-c2cc(-c3ccc(Cl)cc3)nc(-c3ccc(Cl)cc3)c2)cc2cc(Cl)ccc21 . Reported growth?
Result: 102

Query: Entry under review: Cc1ccc2nc(NC(=O)CSc3nc(Cl)c(C#N)c(-c4ccccc4)n3)sc2c1 . Reported growth?
Result: 99.7

Query: Entry under review: CN1CCN(Cc2ccc(NC(=O)c3ccc(C(C)(C)C)c(C#Cc4cnc5cccnn45)c3)cc2C(F)(F)F)CC1 . Reported growth?
Result: -53

Query: Entry under review: CC1=C(SCCC(=O)OC(C[Se]C2=C(C)C(=O)c3ccccc3C2=O)C(=O)NC(C)(C)C)C(=O)c2ccccc2C1=O (stereo unspecified) . Reported growth?
Result: 7.31

Query: Entry under review: O=c1n(Cc2ccc3ccccc3c2)ccn1Cc1ccc2ccccc2c1 . Reported growth?
Result: 106

Query: Entry under review: CC1=NN(c2ccc(S(=O)(=O)O)cc2)C(=O)C1N=Nc1ccc(-c2ccc(N=Nc3ccc(OS(=O)(=O)c4ccc(C)cc4)cc3)c(S(=O)(=O)O)c2)cc1 (stereo unspecified) . Reported growth?
Result: 94.4

Query: Entry under review: O=C(/C=C/c1sc(Cl)nc1Cl)c1ccc(F)cc1 . Reported growth?
Result: 10

Query: Entry under review: CCCCOc1nc2c(C)cccc2cc1-c1cc(-c2ccc(Cl)cc2)nc(-c2ccc(Cl)cc2)c1 . Reported growth?
Result: 91.2
